target: HA of influenza B virus B/Harbin/7/1994 (live virus) (influenza B virus B/Harbin/7/1994); test: cell-based or functional assay
Reported VNA titers values for a set of binders
observation_type: VNA titers (µg/mL)

binder="CR8032 (antibody, V domains shown) VH: EVQLVESGGGLVQPGRSLRLSCAASGFSFDEYIMHWVRQAPGKGLEWVAGINWKGNFMGYADSVQGRFTISRDNGKNSLYLQMNSLRAEDTALYYCAKDRLESSAMDILEGGTFDIWGQGTMVTVSS VL: QSALTQPASVSGSPGQSITISCTGTRRDVGDYKYVSWYQQHPGKAPKLMIYDVSNRPSGVSNRFSGSKSGTTASLTISGLQAEDEADYYCSSYTTSNTRVFGGGTKLTVL" observation_type="VNA titers" result_number=0.69
binder="CR11038 (antibody, V domains shown) VH: EVQLVESGAEVKKPGASVKVSCKASGYAFTSYYLHWVRQAPGQGLEWMGIMNPHGGSTTYAQKFQGRVTMTRDTSTSTVYMELSSLRSEDTAVYYCARESPDSSGYPGYYGMDVWGQGTTVTVSS VL: SYELTQPPSASGTPGQRVTMSCSGSRSNIGSNPVSWFQQLPGMVPKLLIYTNDQRPSGVPDRFSGSKSGPSASLAISGLQSEDEADYYCAAWDDSLKGWVFGGGTKLTVL" observation_type="VNA titers" result_number=0.05
binder="CR8031 (antibody, V domains shown) VH: EVQLVESGGGLVQPGRSLRLSCAASGFTFDEYIMHWVRQAPGKGPEWVAGINWKGNFMGYADSVQGRFTISRDNAKNSLYLQMNSLRADDTALYYCAKDRLESSAMDILEGGTFDIWGQGTMVT VL: QSALTQPASVSGSPGQSITISCTGTSSDVGGYNYVSWYQQHPGKAPKLMIYDVSSRPSGVSNRFSGSKSGDTASLSISGLQAEDEADYYCSSYTSSSTHVFGTGTKVTVL" observation_type="VNA titers" result_number=1.24
binder="CR11035 (antibody, V domains shown) VH: QVQLVQSGAEVKKPGSSVKVSCKTSGYAFNGYGISWVRQAPGQGLEWVAWINTYKVNTHYAQNLRGRVTVSIDTSTTTAYMELRSLRSDDTAVYYCARDWGGPFGNAFDFWGQGTMVTVSS VL: DIQMTQSPSSLAASIGDSVTITCRASQSVGSYLNWYQQKPGKAPKLLIYGASNVQSGVPSRFSGSESGTESTLTINNLQPEDSATYYCQQSYSTPRTFGQGTKVEIK" observation_type="VNA titers" result_number=0.16
binder="CR8071 (antibody, V domains shown) VH: QVQLVQSGAEVKKPGASVRVSCRASGYIFTESGITWVRQAPGQGLEWMGWISGYSGDTKYAQKLQGRVTMTKDTSTTTAYMELRSLRYDDTAVYYCARDVQYSGSYLGAYYFDYWSPGTLVTVSS VL: QSVLTQPPSASGTPGQRVTISCSGSSSNIGTNYVYWYQQFPGTAPKLLIYRSYQRPSGVPDRFSGSKSGSSASLAISGLQSEDEADYYCATWDDSLDGWVFGGGTKLTVLR" observation_type="VNA titers" result_number=2.34
